Taken from the supplement of paper PMC3334620.

Biological target: Pdr3 (UniProt P33200)
Sequence: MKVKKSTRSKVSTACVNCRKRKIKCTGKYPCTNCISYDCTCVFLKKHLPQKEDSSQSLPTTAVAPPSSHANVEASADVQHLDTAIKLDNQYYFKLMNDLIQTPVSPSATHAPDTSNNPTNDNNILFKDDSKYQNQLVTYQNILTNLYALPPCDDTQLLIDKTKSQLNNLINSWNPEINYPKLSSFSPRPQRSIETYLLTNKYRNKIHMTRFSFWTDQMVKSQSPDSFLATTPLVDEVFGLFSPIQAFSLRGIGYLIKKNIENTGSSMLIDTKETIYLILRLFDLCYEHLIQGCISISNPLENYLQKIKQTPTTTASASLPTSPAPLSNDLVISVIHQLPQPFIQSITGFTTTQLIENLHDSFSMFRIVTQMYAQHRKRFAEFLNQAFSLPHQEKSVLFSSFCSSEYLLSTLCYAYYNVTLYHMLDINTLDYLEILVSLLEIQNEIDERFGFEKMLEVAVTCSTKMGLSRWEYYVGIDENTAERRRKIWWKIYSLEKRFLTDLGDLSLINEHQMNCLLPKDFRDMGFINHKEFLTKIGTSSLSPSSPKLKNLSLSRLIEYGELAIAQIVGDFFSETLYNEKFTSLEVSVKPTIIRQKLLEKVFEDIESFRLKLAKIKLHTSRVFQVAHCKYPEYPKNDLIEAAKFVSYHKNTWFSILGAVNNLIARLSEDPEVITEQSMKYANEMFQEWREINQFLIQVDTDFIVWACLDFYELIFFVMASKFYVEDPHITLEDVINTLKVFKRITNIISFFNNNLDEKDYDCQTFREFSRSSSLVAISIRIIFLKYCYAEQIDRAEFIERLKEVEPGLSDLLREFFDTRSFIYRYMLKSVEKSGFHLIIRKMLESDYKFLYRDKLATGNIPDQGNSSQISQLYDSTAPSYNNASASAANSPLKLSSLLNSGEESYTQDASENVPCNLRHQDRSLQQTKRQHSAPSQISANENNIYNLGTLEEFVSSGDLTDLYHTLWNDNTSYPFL
Assay: PBM E-score (8-mer binding enrichment) (E-score (-0.5 to 0.5)); higher = stronger / more preferred TF binding
Settings: protein concentration: 200 nM; construct: GST-full length
Whole data set: some 33,000 sequences, median “E-score (-0.5 to 0.5)” near -0.035, cut for the highest 2% near 0.35. The sample holds the highest values, similar sequences and a random draw of the others, so the mix is not that of the screen.
Label scheme, based on PBM E-score: lower level = under 0.09, middle level = from 0.09 up to 0.3, upper level = 0.3 and over

Place this sequence in its band: ACACCCGG
middle level

Place this sequence in its band: GTTGCCTA
lower level

Place this sequence in its band: CACCCCGG
middle level

Place this sequence in its band: GAACCGGA
upper level

Place this sequence in its band: GGGCGTCA
lower level

Place this sequence in its band: TACCCGAA
middle level

Place this sequence in its band: CACCCGGG
upper level

Place this sequence in its band: AAACCGGA
upper level

Place this sequence in its band: GAACCGGC
middle level

Place this sequence in its band: CAACCGGG
middle level

Place this sequence in its band: CGGAAGAA
upper level

Place this sequence in its band: CACCCGAG
middle level

Place this sequence in its band: CCACCCGA
middle level

Place this sequence in its band: CGGAAGAG
upper level

Place this sequence in its band: ATCACCCC
lower level

Place this sequence in its band: CAACCGCC
lower level

Place this sequence in its band: AGGAAGAC
lower level

Place this sequence in its band: ATCACCCA
lower level

Place this sequence in its band: GTCTCTTA
lower level

Place this sequence in its band: CCACCCGG
upper level

----------
Target: Pdr3 (UniProt P33200)
Sequence: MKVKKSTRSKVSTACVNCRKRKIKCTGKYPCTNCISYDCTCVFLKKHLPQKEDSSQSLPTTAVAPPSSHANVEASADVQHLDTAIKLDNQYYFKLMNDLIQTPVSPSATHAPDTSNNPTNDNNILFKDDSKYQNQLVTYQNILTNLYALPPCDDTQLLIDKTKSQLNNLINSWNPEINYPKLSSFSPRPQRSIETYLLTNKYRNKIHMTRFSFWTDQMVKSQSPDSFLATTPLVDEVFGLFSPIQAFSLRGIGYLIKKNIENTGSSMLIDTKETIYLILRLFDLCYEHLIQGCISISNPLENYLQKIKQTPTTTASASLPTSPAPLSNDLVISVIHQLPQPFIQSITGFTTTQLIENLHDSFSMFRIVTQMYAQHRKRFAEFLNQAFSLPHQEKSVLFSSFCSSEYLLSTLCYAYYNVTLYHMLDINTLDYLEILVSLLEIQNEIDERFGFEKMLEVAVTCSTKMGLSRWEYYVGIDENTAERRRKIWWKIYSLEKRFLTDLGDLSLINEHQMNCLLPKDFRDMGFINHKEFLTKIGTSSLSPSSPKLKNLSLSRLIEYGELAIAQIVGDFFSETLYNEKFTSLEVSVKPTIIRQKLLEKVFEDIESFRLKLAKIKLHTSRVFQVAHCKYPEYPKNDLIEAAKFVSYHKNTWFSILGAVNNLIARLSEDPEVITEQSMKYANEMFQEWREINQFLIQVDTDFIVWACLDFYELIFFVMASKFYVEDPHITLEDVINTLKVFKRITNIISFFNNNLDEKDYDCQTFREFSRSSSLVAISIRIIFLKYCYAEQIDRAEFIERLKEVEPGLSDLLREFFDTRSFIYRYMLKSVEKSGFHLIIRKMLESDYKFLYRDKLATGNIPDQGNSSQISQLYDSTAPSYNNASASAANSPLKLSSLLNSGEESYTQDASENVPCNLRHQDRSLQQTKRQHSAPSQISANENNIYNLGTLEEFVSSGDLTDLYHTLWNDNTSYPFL
Experiment: PBM E-score (8-mer binding enrichment) (E-score (-0.5 to 0.5)); higher = stronger / more preferred TF binding
Settings: protein concentration: 200 nM; construct: GST-full length
Over roughly 33,000 sequences, “E-score (-0.5 to 0.5)” has its median near -0.035; the highest 2% begin near 0.35. The full list was thinned out, with the highest values kept by preference.
MEASURE NAME: PBM E-score
Write the number on its own, no unit after it.

For the sequence GTCGGAAA , report PBM E-score.
0.416

For the sequence GTCGGATA , report PBM E-score.
0.218

For the sequence CCGTCGGC , report PBM E-score.
0.285

For the sequence CACTCAAC , report PBM E-score.
-0.0691

For the sequence ATAGTTAA , report PBM E-score.
-0.038

For the sequence CCCATCCC , report PBM E-score.
0.133

For the sequence CCCTCGGA , report PBM E-score.
0.373

For the sequence AACGCAAT , report PBM E-score.
0.115

For the sequence ATCGGAAA , report PBM E-score.
0.407

For the sequence GGCTCGGA , report PBM E-score.
0.338

For the sequence CTCCACGA , report PBM E-score.
-0.144

For the sequence TATGTCAA , report PBM E-score.
0.0343

For the sequence CCGTCGGA , report PBM E-score.
0.361

For the sequence GCCTCACA , report PBM E-score.
-0.114

For the sequence GGATTTGA , report PBM E-score.
-0.0356

For the sequence AGCACTTA , report PBM E-score.
-0.102

For the sequence CTCGGGAA , report PBM E-score.
0.301

For the sequence CTCGGAGA , report PBM E-score.
0.312

For the sequence CTACTTGA , report PBM E-score.
-0.238

For the sequence GACTCGGA , report PBM E-score.
0.39

For the sequence TCCAAGGA , report PBM E-score.
-0.00825

For the sequence AGCCCAAT , report PBM E-score.
-0.194

----------
Would you mind telling me the reported PBM E-score of each entry?
Molecular target: Pdr3 (UniProt P33200)
Sequence: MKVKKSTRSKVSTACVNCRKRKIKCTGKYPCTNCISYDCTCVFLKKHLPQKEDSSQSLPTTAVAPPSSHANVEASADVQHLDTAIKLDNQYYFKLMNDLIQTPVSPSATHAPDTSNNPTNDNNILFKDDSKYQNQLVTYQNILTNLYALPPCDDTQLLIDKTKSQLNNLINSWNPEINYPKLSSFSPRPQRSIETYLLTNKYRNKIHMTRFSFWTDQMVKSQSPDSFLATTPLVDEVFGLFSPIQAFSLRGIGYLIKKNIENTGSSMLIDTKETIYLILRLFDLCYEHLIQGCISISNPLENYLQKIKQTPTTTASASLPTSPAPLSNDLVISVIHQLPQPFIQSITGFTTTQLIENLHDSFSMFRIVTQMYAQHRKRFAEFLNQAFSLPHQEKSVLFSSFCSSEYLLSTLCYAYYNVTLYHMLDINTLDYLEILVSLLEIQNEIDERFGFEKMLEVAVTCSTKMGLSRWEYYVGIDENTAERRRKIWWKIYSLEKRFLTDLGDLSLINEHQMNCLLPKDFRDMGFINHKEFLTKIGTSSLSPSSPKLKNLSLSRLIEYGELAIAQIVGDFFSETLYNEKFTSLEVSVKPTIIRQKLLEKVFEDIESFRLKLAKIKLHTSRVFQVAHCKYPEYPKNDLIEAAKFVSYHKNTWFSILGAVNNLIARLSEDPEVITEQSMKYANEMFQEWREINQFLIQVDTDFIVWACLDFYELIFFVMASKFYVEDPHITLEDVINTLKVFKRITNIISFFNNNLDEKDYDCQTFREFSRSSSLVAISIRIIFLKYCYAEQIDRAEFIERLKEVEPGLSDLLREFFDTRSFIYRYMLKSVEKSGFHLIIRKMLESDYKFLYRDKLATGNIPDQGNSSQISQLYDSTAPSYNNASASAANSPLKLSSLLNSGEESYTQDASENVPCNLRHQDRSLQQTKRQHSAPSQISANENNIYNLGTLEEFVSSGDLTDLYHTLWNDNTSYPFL
Experiment: PBM E-score (8-mer binding enrichment) (E-score (-0.5 to 0.5)); higher = stronger / more preferred TF binding
Conditions: protein concentration: 200 nM; construct: GST-full length
Whole data set: some 33,000 sequences, median “E-score (-0.5 to 0.5)” near -0.035, cut for the highest 2% near 0.35. Many of the other results were omitted from the sample, so the highest values are more common in it than they were.

For the sequence AAGGTTGC , report PBM E-score.
-0.0716

For the sequence ACGGAATC , report PBM E-score.
0.465

For the sequence CGGGAAAG , report PBM E-score.
0.281

For the sequence ATCCGGGA , report PBM E-score.
0.313

For the sequence ACGCTTCG , report PBM E-score.
0.00401

For the sequence AGGAAAGC , report PBM E-score.
-0.105

For the sequence GCTACTAC , report PBM E-score.
0.146

For the sequence GCCGCATA , report PBM E-score.
0.237

For the sequence AGAGCTCG , report PBM E-score.
0.0679

For the sequence CTGGAAAA , report PBM E-score.
0.144

For the sequence ATCCGGGG , report PBM E-score.
0.389

For the sequence ACGGAATA , report PBM E-score.
0.445

For the sequence CCTTGTGA , report PBM E-score.
-0.0319

For the sequence ACCCTCAA , report PBM E-score.
-0.158

For the sequence ATCGGGGG , report PBM E-score.
0.0408

For the sequence GGGTCCGA , report PBM E-score.
0.234

For the sequence CGGTCCGA , report PBM E-score.
0.378

For the sequence GGGAAAGA , report PBM E-score.
0.0836

For the sequence TCGCTTCA , report PBM E-score.
-0.114

For the sequence AGGTCCGA , report PBM E-score.
0.305

For the sequence GAGAAAAA , report PBM E-score.
0.176

For the sequence GGAACCTA , report PBM E-score.
0.3

For the sequence CAGGAAAG , report PBM E-score.
-0.278

For the sequence AGTTCCAG , report PBM E-score.
-0.0101

For the sequence GTAACCGA , report PBM E-score.
0.0824

For the sequence AGTTCCAC , report PBM E-score.
-0.00065

For the sequence ACCCAGAG , report PBM E-score.
-0.132

For the sequence CTGGAATA , report PBM E-score.
0.08

For the sequence ACCAGCAA , report PBM E-score.
0.0732

For the sequence AGGGAATG , report PBM E-score.
-0.0936

For the sequence CTACTCCA , report PBM E-score.
-0.162

For the sequence ATTACCGG , report PBM E-score.
0.243

For the sequence GCCTTCCC , report PBM E-score.
-0.1

For the sequence CCGTCACG , report PBM E-score.
0.238

For the sequence CCGGAAAC , report PBM E-score.
0.447

For the sequence CACTTACG , report PBM E-score.
0.121

For the sequence TCGACCGA , report PBM E-score.
0.0776

For the sequence CGGAAAGC , report PBM E-score.
0.415
